TARGET_UNDER_TEST: Cytochrome P450 2C9 (Homo sapiens)
METHOD: Cytochrome panel assay with activity outcomes
MEASUREMENT_CONDITIONS: recombinant CYP, pro-luciferin dealkylation, luminescence, p450-cyp2c9; series mostly up to 57.1 µM
Hit rate of the full screen: of about 16,000 compounds, about 4,000 (25%) were called active. Another 26% or so got no clear call; they are omitted. Calls come from the whole dose curve; as a rule, active = well fitted curve in the direction sought with a large enough effect; inconclusive = small, poorly fitted or top-dose-only effect, or effect the other way; inactive = no such curve, though single readings can be large or run the other way. The list is a sample of the results. Peptide text beside a SMILES is read from it. * marks the point of attachment. PhAc = O=C(Cc1ccccc1)*; OBn = c1ccc(CO*)cc1
Classes used: active, inactive

> print(dat)
                                    compound     class
 1                  c1ccc2nc(C3=NCCN3)cnc2c1  inactive
 2             COC(=O)[C@](C)(N)Cc1ccc(O)cc1  inactive
 3   CN(c1ccc(C(=O)NCc2ccccn2)cc1)S(C)(=O)=O  inactive
 4  CCCN1C[C@H](CSC)C[C@H]2c3cccc4[nH]cc(c34)C[C@@H]21  inactive
 5  O=C(CNC(=O)/C(=C\c1ccccc1)NC(=O)c1ccc(Br)cc1)OCc1ccccc1    active
 6  N#C/C(=C\c1ccc(O)c(O)c1)C(=O)NCCc1ccccc1  inactive
 7          Fc1ccc2nc(Nc3nc4c(s3)CCCC4)sc2c1    active
 8        CCCCCCCCCn1cc(C(C)=O)c(=O)[nH]c1=O  inactive
 9  OC[C@@H]1O[C@@H](n2cnc3cncnc32)[C@@H](O)[C@H]1O  inactive
10            COc1ccc(C(=O)CCN(C)C)c2ccccc12    active
11                 CCCCN(CC)C(=O)Cc1ccccc1OC  inactive
12  NC1(C(=O)O)C[C@@H](C(=O)O)[C@H](C(=O)O)C1  inactive
13                       C#C[C@H](N)CCC(=O)O  inactive
14  O=S(=O)(Nc1ccc2oc(-c3ccccc3)nc2c1)c1ccccc1    active
15  COc1cc(/C=C(/NC(=O)c2ccccc2Cl)C(=O)O)cc(OC)c1OC  inactive
16  O=C(Nc1ccc(Cl)cc1)c1cnc(-c2ccccc2)nc1-c1ccccc1    active
17  Cc1ccc(NS(=O)(=O)c2cc(C(=O)NCc3ccccn3)ccc2Cl)cc1    active
18  COc1cccc([C@@H]2Oc3ccc(Br)cc3C(=O)[C@H]2O)c1    active
19  O=C(Nc1ccc(-c2csc(-c3ccccc3)n2)cc1)c1ccccc1Cl  inactive
20  Cc1ccc(C)c(S(=O)(=O)NC(C)C(=O)Nc2ccc(-c3nc4ccccc4s3)cc2)c1 (stereo not given)  inactive
21   O=C(Cn1cnc2ccccc21)NC(c1ccccc1)c1ccccc1    active
22                   COc1ncc2ncc(=O)n(C)c2n1  inactive
23  CCC[C@@H]1C[C@@]1(CCC)C(NS(=O)(=O)c1cccc2cccnc12)c1ccc(Cl)cc1 (stereo not given in full)    active
24  CSc1nc(C)c2c(n1)N(c1ccc(C(F)(F)F)cc1)CC2  inactive
25  CCOC(=O)c1oc2ccccc2c1NC(=O)c1ccc2c(c1)OCO2  inactive
26  O=C(O)COc1ccc(OCCNC[C@@H](O)COc2ccccc2)cc1  inactive
27     O=C(COc1ccc(Cl)cc1Cl)N/N=C/CCc1ccccc1  inactive
28  O=C(CNC(=O)Cc1ccccc1)NCC(=O)OCc1ccccc1 (PhAc-Gly-Gly-OBn)  inactive
29  NC1(C(=O)O)CC(C(=O)O)C1 (stereo not given)  inactive
30  Cc1ccc(C)c(C(=O)CN2C3=NCCCN3c3ccccc32)c1  inactive
31  C[C@@H]1C[C@H]2[C@H]3C[C@@H](F)C4=CC(=O)C=C[C@]4(C)[C@@]3(Cl)[C@@H](O)C[C@@]2(C)[C@@H]1C(=O)COC(=O)C(C)(C)C  inactive
32  Cc1ccc(-c2cc(C(=O)NN=C3CCCC3)c3ccccc3n2)cc1    active
33  CCOC(=O)c1nn(-c2ccccc2)c(-c2ccccc2)c1C(=O)c1ccccc1    active
34   N#C/C(=C\c1ccc(O)c(O)c1)C(=O)OCCc1cccs1    active
35  CCCc1ccc(-c2cc(C(=O)NN3CCOCC3)c3ccccc3n2)cc1    active
36  CCCCOC(=O)C1=C(C)Nc2ncnn2C1c1cc(OC)ccc1OC (stereo not given)    active
37                 C/C=C\C(=O)N(CC)c1ccccc1C  inactive
38         O=c1[nH]n(-c2cccc(Cl)c2)c2ncccc12  inactive
39  Cn1c(=O)c(C(=O)CN2CCOCC2)c(N)n(Cc2ccccc2)c1=O  inactive
40  CC1CC2(CCCCC2)N2C(=O)C(=O)c3cccc1c32 (stereo not given)    active
41               COc1cc([C@H](O)C(=O)O)ccc1O  inactive
42  CCOC(=O)c1oc2ccccc2c1NC(=O)c1ccc(S(=O)(=O)N(C)C)cc1    active
43  CC(C)Cn1c(N)c(C(=O)CSc2ccc3c(c2)OCCO3)c(=O)n(C)c1=O    active
44                         C#CCN(C)Cc1ccccc1  inactive
45  COC(=O)[C@@H]1[C@@H]2C[C@H]3c4[nH]c5cc(OC)ccc5c4CCN3C[C@@H]2C[C@H](OC(=O)c2cc(OC)c(OC)c(OC)c2)[C@H]1OC  inactive

* * *

TARGET_UNDER_TEST: Cytochrome P450 2C9 (Homo sapiens) (UniProt P11712)
Sequence (P11712 whole entry, looked up): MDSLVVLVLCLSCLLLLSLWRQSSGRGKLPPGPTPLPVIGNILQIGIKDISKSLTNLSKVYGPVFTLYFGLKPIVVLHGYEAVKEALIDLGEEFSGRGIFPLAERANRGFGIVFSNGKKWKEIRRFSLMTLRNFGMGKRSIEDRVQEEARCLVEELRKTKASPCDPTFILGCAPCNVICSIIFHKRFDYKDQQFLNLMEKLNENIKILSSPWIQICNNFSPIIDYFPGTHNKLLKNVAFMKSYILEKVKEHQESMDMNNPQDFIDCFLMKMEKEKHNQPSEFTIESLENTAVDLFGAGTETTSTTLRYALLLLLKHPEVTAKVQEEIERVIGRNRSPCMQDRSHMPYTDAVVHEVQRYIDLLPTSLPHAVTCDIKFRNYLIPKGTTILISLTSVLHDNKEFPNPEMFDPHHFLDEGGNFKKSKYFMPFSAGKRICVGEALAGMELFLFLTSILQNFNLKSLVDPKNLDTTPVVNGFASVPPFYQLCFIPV
METHOD: Cytochrome panel assay with activity outcomes; for activity, negative = inhibition: % is set by controls: 0 for no effect and ±100 for the full control effect
MEASUREMENT_CONDITIONS: recombinant CYP, pro-luciferin dealkylation, luminescence, p450-cyp2c9; series mostly up to 57.1 µM
In all, about 16,000 compounds went through this assay and about 4,000 (25%) were called active. About 26% were inconclusive and are not listed. A selection follows.
List of activity, negative = inhibition values.
RECORDED_ENDPOINT: activity, negative = inhibition

> print(dat)
                                 cpd.smiles                recorded.endpoint                     assay.value
1  CS[C@]12C(=O)C[C@]3(C)[C@@H](CC[C@@]3(O)C(=O)CO)[C@@H]1CCC1=CC(=O)CC[C@]12C  activity, negative = inhibition   11.9% [at 11.4 µM] (inactive)
2                        O=C(O)C[n+]1ccccc1  activity, negative = inhibition   6.61% [at 11.4 µM] (inactive)
3  Cc1cn([C@H]2C[C@H](O)[C@@H](COC(N)=O)O2)c(=O)[nH]c1=O  activity, negative = inhibition   18.3% [at 11.4 µM] (inactive)
4                   ON(CCc1ccccn1)Cc1ccccc1  activity, negative = inhibition  -2.37% [at 11.4 µM] (inactive)
5  CCN1C(=O)[C@H]2[C@H]3[C@H](O)[C@H](O)C/C(=N/OCC(C)C)[C@H]3CC[C@@H]2C1=O  activity, negative = inhibition  -3.02% [at 11.4 µM] (inactive)
6              c1ccc(CCCNc2nnnc3ccccc23)cc1  activity, negative = inhibition  -19.1% [at 11.4 µM] (inactive)
7  CC(C)CO/N=C1/C[C@@H](O)[C@@H](O)[C@@H]2[C@@H]3C(=O)N([C@@H](C)c4ccccc4)C(=O)[C@H]3CC[C@H]12  activity, negative = inhibition  -8.59% [at 11.4 µM] (inactive)
8  CCN1C(=O)[C@H]2[C@H]3[C@H](O)[C@H](O)C/C(=N/OC[C@@H](O)[C@H]4O[C@H]5OC(C)(C)O[C@H]5[C@@H]4O)[C@@H]3CC[C@@H]2C1=O  activity, negative = inhibition   11.9% [at 11.4 µM] (inactive)
9             c1ccc(CCN2CCN=C2Cc2ccccc2)cc1  activity, negative = inhibition  -8.28% [at 11.4 µM] (inactive)

* * *

TARGET_UNDER_TEST: Cytochrome P450 2C9 (Homo sapiens) (UniProt P11712)
METHOD: Cytochrome panel assay with activity outcomes
MEASUREMENT_CONDITIONS: recombinant CYP, pro-luciferin dealkylation, luminescence, p450-cyp2c9; series mostly up to 57.1 µM
About 4,000 (25%) of roughly 16,000 compounds were called active. Inconclusive results (about 26%) are left out. Calls come from the whole dose curve; as a rule, active = well fitted curve in the direction sought with a large enough effect; inconclusive = small, poorly fitted or top-dose-only effect, or effect the other way; inactive = no such curve, though single readings can be large or run the other way. A selection follows.
Classes used: active, inactive

> print(dat)
                                  cpd.smiles                         target.under.test     class
 1    O=Nc1c(O)n(Cc2ccc(Cl)c(Cl)c2)c2ccccc12  Cytochrome P450 2C9 (Homo sapiens) (UniProt P11712)    active
 2        O=Nc1c(O)n(Cc2cccc(Cl)c2)c2ccccc12  Cytochrome P450 2C9 (Homo sapiens) (UniProt P11712)    active
 3  Cc1ccc(C(=O)CNc2nc3c(c(=O)[nH]c(=O)n3C)n2Cc2ccccc2)cc1  Cytochrome P450 2C9 (Homo sapiens) (UniProt P11712)    active
 4         CCCCCCCCCCCC1=C(O)C(=O)C=C(O)C1=O  Cytochrome P450 2C9 (Homo sapiens) (UniProt P11712)  inactive
 5  Cc1ccc(S(=O)(=O)n2ccc(-c3cccc(OCc4c(F)cccc4Cl)c3)n2)cc1  Cytochrome P450 2C9 (Homo sapiens) (UniProt P11712)    active
 6          CCCCc1nc(SCC(=O)Nc2ncccn2)n[nH]1  Cytochrome P450 2C9 (Homo sapiens) (UniProt P11712)  inactive
 7                  Clc1ccc(COc2ccccn2)cc1Cl  Cytochrome P450 2C9 (Homo sapiens) (UniProt P11712)  inactive
 8    O=C1C(=O)N(Cc2ccc(Cl)c(Cl)c2)c2ccccc21  Cytochrome P450 2C9 (Homo sapiens) (UniProt P11712)  inactive
 9  Oc1c(C(O)(c2ccccc2)c2ccc3ccccc3c2O)ccc2ccccc12  Cytochrome P450 2C9 (Homo sapiens) (UniProt P11712)    active
10  Cc1cc(C)n(-c2nc3c(c(=O)[nH]c(=O)n3C)n2CC(C)C)n1  Cytochrome P450 2C9 (Homo sapiens) (UniProt P11712)  inactive
11        CC1=CC(C)(C)Nc2ccc(CSc3ccccc3)cc21  Cytochrome P450 2C9 (Homo sapiens) (UniProt P11712)    active
12                CCN(CC)CCOC(=O)c1ccc(N)cc1  Cytochrome P450 2C9 (Homo sapiens) (UniProt P11712)  inactive
13  COc1ccc(COC(=O)N/N=C(\C)CC(=O)Nc2c(C)cc(C)cc2C)cc1  Cytochrome P450 2C9 (Homo sapiens) (UniProt P11712)    active
14  COC(=O)[C@@]1(Cc2ccc(OC)cc2)[C@H]2c3cc(C(=O)N4CCCC4)n(CCc4c[nH]c5cc(F)ccc45)c3C[C@H]2CN1C(=O)c1ccccc1  Cytochrome P450 2C9 (Homo sapiens) (UniProt P11712)    active
15         Cc1cc(C)n(C(=O)c2cc3c(s2)CCCC3)n1  Cytochrome P450 2C9 (Homo sapiens) (UniProt P11712)    active
16          O=c1cc(CSc2ccccc2)[nH]c(=S)[nH]1  Cytochrome P450 2C9 (Homo sapiens) (UniProt P11712)  inactive
17                      Nc1ccc(Nc2ccccc2)cc1  Cytochrome P450 2C9 (Homo sapiens) (UniProt P11712)    active
18  COc1ccc(NC(=O)N2CC[C@@]3(CCCN(C(=O)c4cccc(F)c4)C3)C2)cc1  Cytochrome P450 2C9 (Homo sapiens) (UniProt P11712)  inactive
19  Cc1ccc(OC[C@H](O)[C@H](C)NC(C)C)c2c1CCC2  Cytochrome P450 2C9 (Homo sapiens) (UniProt P11712)  inactive
20  CCOC(=O)c1c(C)[nH]c(C)c1C(=O)COC(=O)c1ccc(S(=O)(=O)N(CC)CC)cc1  Cytochrome P450 2C9 (Homo sapiens) (UniProt P11712)    active
21  COc1ccc(NC(=O)N2CCCC3(CCN(C(=O)c4cccc(F)c4)CC3)C2)cc1  Cytochrome P450 2C9 (Homo sapiens) (UniProt P11712)  inactive
22              CNC(=S)Nc1ccc2nc(C)c(C)nc2c1  Cytochrome P450 2C9 (Homo sapiens) (UniProt P11712)  inactive
23      Clc1ccc(Cn2c(CN3CCCC3)nc3ccccc32)cc1  Cytochrome P450 2C9 (Homo sapiens) (UniProt P11712)  inactive
